The following are reported IC50 results, target or system PIK3CA (human) (UniProt P42336).
Supply the numeric figure in nM, leaving out any unit text.

>>> print(df.to_string())
                                item_smiles  quantitative_result
0  CO[C@H]1CC[C@H](N(C)c2nn3c(-c4cnc(N)c(C(F)(F)F)c4)cnc3s2)CC1                   27
1  Nc1ncc(-c2cnc3sc(N4CCCNC4=O)nn23)cc1C(F)(F)F                  170
2  CC(=O)N1CCC(Nc2nn3c(-c4cnc(N)c(C(F)(F)F)c4)cnc3s2)CC1                   18
3  CN1CCN(c2ncc(-c3cnc4sc(NC5CCN(S(C)(=O)=O)CC5)nn34)cc2C(F)(F)F)CC1                23000

From here, focus on the item given below.
Recorded result, `CS(=O)(=O)N1CCC(Nc2nn3c(-c4cnc(N5CCNCC5)c(C(F)(F)F)c4)cnc3s2)CC1` , IC50: 1400

* * *

biological target: PIK3CA (human)
pIC50: −log10 of the molar value.
EXPERIMENTAL_ENDPOINT: pIC50

>>> print(df.to_string())
                                   compound        result
0  NC(=O)C1CCN(c2nn3c(-c4cnc(N)c(C(F)(F)F)c4)cnc3s2)CC1  6.00 to 7.30

The measured pIC50 that `Nc1ncc(-c2cnc3sc(N4CCCC5(CCNCC5)C4)nn23)cc1C(F)(F)F` showed for PIK3CA (human) is 6.00 to 7.30

The measured pIC50 that `Nc1ncc(-c2cnc3sc(N4CCNCC4)nn23)cc1C(F)(F)F` showed for PIK3CA (human) is 5.89

The measured pIC50 that Nc1ncc(-c2cnc3sc(N4CCCC(C(=O)O)C4)nn23)cc1C(F)(F)F (centres undefined) showed for PIK3CA (human) is 6.00 to 7.30

* * *

target: PIK3CA (human)
EXPERIMENTAL_ENDPOINT: IC50

                                   molecule         result
0  Nc1ncc(-c2cnc3sc(NC4CCC(=NOCCF)CC4)nn23)cc1C(F)(F)F (stereo not drawn)     1 to 50 nM
1  Nc1ncc(-c2cnc3sc(N4CCCC(N)C4)nn23)cc1C(F)(F)F (stereo not drawn)  50 to 1000 nM

From here, focus on the item given below.
The measured IC50 that CN(c1nn2c(-c3cnc(N)c(C(F)(F)F)c3)cnc2s1)C1CCC(=NOCCF)CC1 (stereo not drawn) showed for PIK3CA (human) is 50 to 1000 nM
